The measured values listed here are drawn from paper PMC6408276.

- protocol_summary: PK studies in mice after single oral administration
- Type: in vivo
- conditions_used: mouse, plasma, po, 25 mg/kg
metric: Tmax
Answers without a unit are incomplete; give the number and then its unit.

Prompt line: What Tmax value was documented for this molecule, `O=C(N[C@@H](Cn1ccnc1)c1ccc(Cl)cc1Cl)c1ccc(-c2nnc(-c3ccccc3)o2)cc1` ?
Response line: 2 h
